Target: Cysteine protease ATG4B (Homo sapiens);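 further: Fluorescence-based dose-response confirmation assay measuring inhibition of ATG4B activity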
Sequence (Q9Y4P1 whole entry): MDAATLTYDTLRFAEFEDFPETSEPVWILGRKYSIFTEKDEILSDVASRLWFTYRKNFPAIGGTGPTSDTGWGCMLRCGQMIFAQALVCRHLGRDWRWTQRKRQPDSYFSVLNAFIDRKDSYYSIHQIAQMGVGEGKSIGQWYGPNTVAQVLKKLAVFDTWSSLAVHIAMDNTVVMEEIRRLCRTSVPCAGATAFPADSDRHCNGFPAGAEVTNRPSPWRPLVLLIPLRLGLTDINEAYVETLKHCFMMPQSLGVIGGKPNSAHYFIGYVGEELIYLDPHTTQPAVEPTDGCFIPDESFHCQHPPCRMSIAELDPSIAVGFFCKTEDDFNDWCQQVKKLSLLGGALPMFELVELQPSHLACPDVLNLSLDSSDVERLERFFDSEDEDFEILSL
Assay type: functional
Calls of active or inactive are those of the source.
PARAMETER MEASURED: IC50

What value of measured IC50 is listed for `O=C(O)c1cc(-c2ccc(-c3c(-c4ccc5c(c4)OCO5)noc3-c3ccsc3)cc2)nc2ccccc12` ?
6.81 µM (active)

What value of measured IC50 is listed for `O=C1/C(=C/C=C/c2ccco2)SC(=S)N1NS(=O)(=O)c1ccccc1` ?
7.13 µM (active)

What value of measured IC50 is listed for `CCCOc1ccc2c3c(c(=O)oc2c1OCCC)CCC3` ?
11.4 µM (active)

What value of measured IC50 is listed for `CCc1ccc2c(c1)C(c1ccc([N+](=O)[O-])cc1)=NNC(c1ccccc1)=N2` ?
0.399 µM (active)

Numbers sourced from ChEMBL document CHEMBL1201862.
